Tested on: OVCAR-3 ovarian
assayInfo: NCI-60 one-dose screen, 48 h (100 = growth as untreated, 0 = no growth, -100 = all killed)
measurementSetup: 10 µM unless noted
This is part of a sample that, as a whole, favours compounds with a hit. Of some 83,000 tested, about 20% had one in any assay.
measure: growth (%)
Answers are plain numbers, in %.

Reference set, count: 5
compound	valueUnit	growth
CCC(=O)Oc1c(C)cc(O)c2ccccc12	%	72.6
CCOC(=O)c1c(C)[nH]c(C)c1C=O	%	112
CCCc1cccc(CCC)c1NC(=O)Nc1cc(Cl)cc(Cl)c1	%	103
CNc1ccccc1C(N)=O	%	114
CC1(c2ccccc2)CO1 (stereo not drawn)	%	114

Go through the items and report each one's growth.
1. CC(c1ccccc1)N1C(=O)CSC1=S (stereo not drawn)
2. CCOC(C=O)OCC
3. c1ccc(Oc2c3ccccc3nc3ccccc23)cc1

1: -13.1; 2: 109; 3: -3.62
